Data credit: PubChem BioAssay (NCI)

- test.details: NCI Yeast Anticancer Drug Screen. Data for the cln2 rad14 strain (AID 165);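 further: 0% = growth equal to vehicle treated cultures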
- run.conditions: S. cerevisiae cln2 rad14 strain, at 50.0 µM, stronger effect = higher value
This is part of a sample that, as a whole, favours compounds with a hit. Of some 79,000 tested, about 15% had one in any assay.
quantity.name: growth inhibition (%)

compound | quantity.name | measurement.units | meas.value
Nc1nc(N)nc(C2CC3C=CC2C3)n1 (stereo not drawn) | growth inhibition | % | -10
O=C1c2ccccc2C(=O)N1CC(O)COc1cccc2ccccc12 (stereo not drawn) | growth inhibition | % | -13.9
CCCCCCCCSC#N | growth inhibition | % | 23.9
Cc1ccc(C(=O)Nc2ccc(S(=O)(=O)O)c3cc(S(=O)(=O)O)cc(S(=O)(=O)O)c23)cc1N | growth inhibition | % | 1.7
O=CNCO | growth inhibition | % | 18.9
O=C(O)/C(=C(\CO)c1ccccc1)c1ccccc1 | growth inhibition | % | 24.4
CCCC(=O)Nc1ccc(N=Nc2ccccc2)cc1 | growth inhibition | % | -15.9
Cc1ncc(CN2CSC(CCO)C2C)c(N)n1 (stereo not drawn) | growth inhibition | % | 16.8
O=C(O)/C=C/n1c2ccccc2c(=O)c2ccccc21 | growth inhibition | % | 8.9
CC(=O)C(C)O (stereo not drawn) | growth inhibition | % | -0.95
COc1ccc(N2C(=O)OC3(CCN(Cc4ccccc4)CC3)C2=O)cc1 | growth inhibition | % | 8.25
O=C(NCc1ccc2ccc3cccnc3c2n1)c1ccc[n+](Cc2ccccc2)c1 | growth inhibition | % | 3.5
C/C=C(\Cl)C=O | growth inhibition | % | -9.7
